Test system: Caco-2
PROTOCOL TEXT: cell viability relative to DMSO; higher = less toxic
RUN PARAMETERS: 72 h; 10 nM
// cell viability lookup, one value per entry

{"MOLECULE": "CCN(CC)CCOC(=O)C1(C2CCCCC2)CCCCC1 [dicycloverine]", "cell viability, %": 95.6}
{"MOLECULE": "CN1CC(=O)N=C1NC(=O)Nc1cccc(Cl)c1 [fenobam]", "cell viability, %": 94.4}
{"MOLECULE": "COc1cc(Br)c(S(=O)(=O)Nc2ccc(C(F)(F)F)c(O[C@@H]3CCN(C)C3)c2)cc1OC", "cell viability, %": 100}
{"MOLECULE": "COc1cccc(CCc2ccccc2OCC[C@@H]2C[C@@H](O)CN2C)c1", "cell viability, %": 97.4}
{"MOLECULE": "O=c1[nH]c2ccc(Cl)cc2c(N[C@@H]2CN3CCC2CC3)c1-c1nc2ccccc2[nH]1 [CHIR-124]", "cell viability, %": 96.9}
{"MOLECULE": "Cc1cccc(Nc2cc(Cl)nc(SCC(=O)O)n2)c1C [pirinixic-acid]", "cell viability, %": 95.2}
{"MOLECULE": "C[C@@H](O)[C@H]1C(=O)N2C(C(=O)O)=C([C@H]3CCCO3)S[C@H]12 [faropenem]", "cell viability, %": 91}
{"MOLECULE": "CC1(N)CCN(c2cnc(-c3cccc(Cl)c3Cl)c(N)n2)CC1 [SHP099]", "cell viability, %": 113}
{"MOLECULE": "O=C(Nc1nc(-c2cc(Cl)cs2)c(N2CCN(C3CCCCC3)CC2)s1)c1cnc(N2CCC(C(=O)O)CC2)c(Cl)c1 [avatrombopag]", "cell viability, %": 88.7}
{"MOLECULE": "N[C@@]1(C(=O)O)CC[C@H]2[C@H](C(=O)O)[C@H]21 [eglumetad]", "cell viability, %": 104}
{"MOLECULE": "Cc1[nH]c(/C=C2\\C(=O)Nc3ccccc32)c(C)c1CCC(=O)O [orantinib]", "cell viability, %": 96.9}
{"MOLECULE": "Clc1ccc(N/N=C(\\c2ccccc2)c2ccccn2)nc1 [JIB04]", "cell viability, %": 94.1}
{"MOLECULE": "CNc1ncnc2c1ncn2[C@@H]1O[C@H](CO)[C@@H](O)[C@H]1O [N6-methyladenosine]", "cell viability, %": 112}
{"MOLECULE": "O[C@@H](COc1cccc2ncccc12)CN1CCN([C@@H]2c3ccccc3[C@@H]3[C@H](c4ccccc42)C3(F)F)CC1 [zosuquidar]", "cell viability, %": 102}
{"MOLECULE": "O=c1onc2cnc3ccccc3n12 [ODQ]", "cell viability, %": 96}
{"MOLECULE": "C=C(C)CN1CC[C@]23c4c5ccc(O)c4O[C@H]2c2[nH]c4ccccc4c2C[C@@]3(O)C1C5 [SDM25N]", "cell viability, %": 102}
{"MOLECULE": "C[C@@H]1COCCN1c1cc(C2([S@](C)(=N)=O)CC2)nc(-c2ccnc3[nH]ccc23)n1 [AZD6738]", "cell viability, %": 100}
{"MOLECULE": "N[C@@H](Cc1c[nH]c2ccccc12)C(=O)O [tryptophan]", "cell viability, %": 96.6}

###

Test system: Calu-3
PROTOCOL TEXT: cell viability relative to DMSO; higher = less toxic
RUN PARAMETERS: 72 h; 1 nM

{"COMPOUND": "Cc1cc(OCCN2CCOCC2)nn1-c1ccc2ccccc2c1", "cell viability [%]": 98.5}
{"COMPOUND": "Clc1ccccc1CN1CCc2sccc2C1", "cell viability [%]": 101}
{"COMPOUND": "C#Cc1cccc(Nc2ncnc3cc(OCCOC)c(OCCOC)cc23)c1", "cell viability [%]": 107}
{"COMPOUND": "Cc1cc(I)ccc1Nc1c(C(=O)NOCC2CC2)cc(F)c(F)c1F", "cell viability [%]": 97.2}
{"COMPOUND": "CC1(C)CCC2=C(O1)c1ccccc1C(=O)C2=O", "cell viability [%]": 109}
{"COMPOUND": "OCCN1CCN(CCCN2c3ccccc3Sc3ccc(Cl)cc32)CC1", "cell viability [%]": 95.6}
{"COMPOUND": "CCn1c(-c2nonc2N)nc2c(C#CC(C)(C)O)ncc(OC[C@H]3CCCNC3)c21", "cell viability [%]": 102}
{"COMPOUND": "CC(=O)O[C@]1(C(C)=O)CC[C@H]2[C@@H]3C[C@H](C)C4=CC(=O)C=C[C@]4(C)[C@@]3(F)[C@@H](O)C[C@@]21C [fluorometholone-acetate]", "cell viability [%]": 103}
{"COMPOUND": "Clc1cccc(/C=N/N=C/c2cccc(Cl)c2)c1", "cell viability [%]": 107}
